Test system: NCI-H23
Experiment: NCI tumour cell line growth inhibition, 48 h
Active and inactive are the calls of the source. Rule as the data show it: active = GI50 up to about 1.1 µM and inactive = higher.

{"columns": ["LINE_NOTATION", "GI50"],
 "data": [
  ["N#CCc1nc(O)c2ccccc2n1", "> 100 µM (inactive)"],
  ["COc1ccc(/C=c2\\sc3nnc(CCC(=O)Nc4cccc(C(F)(F)F)c4)n3c2=O)cc1", "> 100 µM (inactive)"],
  ["COC(=O)c1c(O)ccc2c1c1cc3ccccc3cc1n2Cc1cc(OC)cc(OC)c1", "4.53 µM (inactive)"],
  ["Nc1c(-c2ccccc2)c2ccc([N+](=O)[O-])cc2c(=O)n1-c1cccc(C(=O)O)c1", "> 100 µM (inactive)"]
]}

* * *

System: SR
Experiment: NCI tumour cell line growth inhibition, 48 h
The source made the active and inactive calls. Cut-off read from the data, not from the text of the source: active = GI50 up to about 1.1 µM and inactive = higher.
Recorded GI50 by entry

{"columns": ["MOLECULE", "GI50"],
 "data": [
  ["Cc1ccc(S(=O)(=O)N/N=C(\\c2nc3ccc(Cl)cc3nc2O)C(O)c2cccc([N+](=O)[O-])c2)cc1 (stereo not drawn)", "> 100 µM (inactive)"],
  ["O=C(CSc1nc(=O)c(-c2ccccc2NC(=O)C(F)(F)F)n[nH]1)NC(=O)Nc1ccccc1", "> 100 µM (inactive)"],
  ["CCOC(=O)/C(=C\\c1ccccc1)C(=O)O", "> 100 µM (inactive)"],
  ["CCOC(=O)C(O)(NC(=O)Nc1ccc(F)cc1)C(F)(F)F (stereo not drawn)", "> 100 µM (inactive)"],
  ["CC(O)C1(CNc2cc(Cl)nc(N)n2)CC(CCc2ccccc2)C1 (stereo not drawn)", "6.15 µM (inactive)"],
  ["O=C1c2ccccc2S(=O)(=O)c2c1cccc2[N+](=O)[O-]", "0.902 µM (active)"],
  ["COc1cc(NS(=O)(=O)c2ccc(C)cc2)c2nccnc2c1", "16.7 µM (inactive)"],
  ["O=C1c2ccccc2C(=O)N1c1ccc(OCCN2CCCCC2)cc1", "> 100 µM (inactive)"],
  ["CC12CC(=O)C3C(CCC4=CC(=O)CCC43C)C1CC=C2CC(=O)O (stereo not drawn)", "> 100 µM (inactive)"],
  ["O=[N+]([O-])c1ccc2c(c1)C1=C(CO2)Cc2ccccc2O1", "18.9 µM (inactive)"],
  ["CN(C(=O)C12C3(C(=O)O)C4C5(C(=O)O)C3C1(C(=O)O)C5C42C(=O)O)C(C)(C)C (stereo not drawn)", "> 100 µM (inactive)"],
  ["Cc1cc(=O)oc2cc(OC(=O)N(CCCl)CCCl)ccc12", "63.2 µM (inactive)"],
  ["CCC(=O)C(CCN1CCC(N2C(=O)C(CCC#N)c3ccccc32)CC1)(c1ccccc1)c1ccccc1 (stereo not drawn)", "0.0486 µM (active)"]
]}

* * *

Recorded GI50 by entry
Tested on: KM-20L2
Assay: NCI tumour cell line growth inhibition, 48 h
The source made the active and inactive calls. No stated cut-off is given here; in the data, active = GI50 up to about 1.1 µM and inactive = higher.
QUANTITY_KIND: GI50

{"columns": ["MOLECULE", "MEASURED"],
 "data": [
  ["Cc1nc(-c2nc(C)c(C(=O)/C=C/c3ccc(N(C)C)cc3)s2)sc1C(=O)/C=C/c1ccc(N(C)C)cc1", "> 100 µM (inactive)"],
  ["N#CC1(C#N)C2(c3ccccc3)OC(c3ccccc3)(c3cc4ccccc4cc32)C1(C#N)C#N", "13.3 µM (inactive)"],
  ["Nc1nc(SCc2ccc([N+](=O)[O-])cc2)nc2c1ncn2C1OC(COP(=O)(O)O)C(O)C1O (stereo not given)", "> 100 µM (inactive)"],
  ["CCC1c2cc3n(c(=O)c2COC1O)Cc1c-3nc2ccccc2c1Cl (stereo not given)", "> 69.7 µM (inactive)"],
  ["CCC1=CC2CN3Cn4c(c(COCc5c6n(c7ccccc57)CN5CC7C=C(CC)C5C6(C(=O)OC)C7)c5ccccc54)C(C(=O)OC)(C2)C13", "> 100 µM (inactive)"],
  ["CC(C)(C)C1CCC2(CC1)CCN(CCCN1CCOCC1)CC2", "2.18 µM (inactive)"],
  ["CCOC(=O)c1cc(/C=C/C(C)=C/C(=O)OC)oc1C", "> 100 µM (inactive)"],
  ["O=C1c2ccoc2C(=O)c2oc(=O)ccc21", "> 46.1 µM (inactive)"],
  ["c1ccc2c(c1)CCc1c(-c3n[nH]c4c3CCc3ccccc3-4)n[nH]c1-2", "> 100 µM (inactive)"],
  ["CC(C)(Oc1ccc(/C=C/C(=O)c2ccc(Cl)cc2)cc1)C(=O)Nc1c(Cl)cccc1Cl", "20.3 µM (inactive)"]
]}

* * *

System: OVCAR-8
Test: NCI tumour cell line growth inhibition, 48 h
Calls of active or inactive are those of the source. Rule as the data show it: active = GI50 up to about 1.1 µM and inactive = higher.

{"columns": ["COMPOUND", "GI50"],
 "data": [
  ["CC1CC(N2CCOCC2)=Nc2ccccc2N1Cc1ccccc1 (stereo not drawn)", "88.5 µM (inactive)"],
  ["CC1=C[C@H]2c3c([nH]c4ccccc34)C(c3c[nH]c4ccccc34)[C@H]2CC1 (stereo partly drawn)", "8.59 µM (inactive)"],
  ["Cc1nc(-n2nc(-c3ccccc3)cc2-c2ccccc2)sc1C(/C=C/c1ccc([N+](=O)[O-])cc1)=N/NC(=O)c1ccncc1", "28.9 µM (inactive)"]
]}

* * *

Tested on: DLD-1
Experiment: NCI tumour cell line growth inhibition, 48 h
Activity calls are given as the source filed them. Rule as the data show it: active = GI50 up to about 1.1 µM and inactive = higher.

{"columns": ["COMPOUND", "TARGET_DESC", "GI50"],
 "data": [
  ["O=C(NN1C(=O)C(Cl)C1c1cccc(O)c1)c1ccccc1O (stereo not drawn)", "DLD-1", "> 100 µM (inactive)"],
  ["COc1ccc(C2SCC(=O)N2NC(=O)c2ccncc2)cc1F (stereo not drawn)", "DLD-1", "> 100 µM (inactive)"],
  ["O=C(/C=C/c1ccc[nH]1)c1ccccc1", "DLD-1", "> 100 µM (inactive)"],
  ["O=c1[nH]c2cc(-c3ccccc3)nc-2nn1-c1c(Cl)cc(Cl)cc1Cl", "DLD-1", "37.5 µM (inactive)"],
  ["CCc1cccc(C(C)C)c1NC(=O)C(=O)C(CC(=O)Nc1ccc(Cl)c(Cl)c1)C(=O)OC (stereo not drawn)", "DLD-1", "31 µM (inactive)"],
  ["CCOc1ccccc1NC(=O)/C=C1\\NC(=O)CS1", "DLD-1", "> 100 µM (inactive)"],
  ["Cc1nc(-c2nc(C)c(C(=O)/C=C/c3ccc(N(C)C)cc3)s2)sc1C(=O)/C=C/c1ccc(N(C)C)cc1", "DLD-1", "29.5 µM (inactive)"],
  ["CC(C)(C)C1CCC2(CC1)CCN(CCCN1CCOCC1)CC2", "DLD-1", "24.4 µM (inactive)"],
  ["CC[C@@H](C(=O)[C@@H](C)[C@@H](O)[C@H](C)CCc1ccc(C)c(O)c1C(=O)O)[C@H]1O[C@](CC)([C@H]2CC[C@](O)(CC)[C@H](C)O2)C[C@@H]1C [LASALOCID A SODIUM]", "DLD-1", "3.61 µM (inactive)"],
  ["CC1CCP(=O)(c2ccccc2)c2ccccc21 (stereo not drawn)", "DLD-1", "46.8 µM (inactive)"],
  ["COc1ccc(C2c3cc4c(cc3OC(O)(CO)C2C(=O)O)OCO4)cc1.COc1ccc(C2c3cc4c(cc3OC3(O)COC(=O)C23)OCO4)cc1 (stereo not drawn)", "DLD-1", "21.8 µM (inactive)"],
  ["COC(=O)C1=C(C(=O)OC)SC(=CC#CC=C2SC(C(=O)OC)=C(C(=O)OC)S2)S1", "DLD-1", "14.1 µM (inactive)"],
  ["COc1c2nc(CCl)[nH]c(=O)c2c(OC)c2nc(CCl)[nH]c(=O)c12", "DLD-1", "> 100 µM (inactive)"]
]}

* * *

Test system: HL-60
Assay: NCI tumour cell line growth inhibition, 48 h
The source made the active and inactive calls. Cut-off read from the data, not from the text of the source: active = GI50 up to about 1.1 µM and inactive = higher.
QUANTITY_KIND: GI50

{"columns": ["COMPOUND", "MEASURED"],
 "data": [
  ["CCOS(C)(=O)=O", "> 100 µM (inactive)"],
  ["CCCCC1c2c([nH]c3ccccc23)C2C(=O)N(c3ccc(OC)cc3)C(=O)C2C1CCC (stereo not drawn)", "2.96 µM (inactive)"],
  ["CCOC(=O)C(Cc1ccccc1)(Cc1ccc(O)cn1)NC(=O)c1ccccc1 (stereo not drawn)", "21.7 µM (inactive)"],
  ["COc1cc(/C=C2\\CCC(C)C3C2=NN(C(C)=O)C3c2cc(OC)c(OC)c(OC)c2)cc(OC)c1OC (stereo not drawn)", "> 91.6 µM (inactive)"],
  ["Cc1cc(=O)oc2cc(OC(=O)N(CCCl)CCCl)ccc12", "> 100 µM (inactive)"],
  ["CCOC(=O)C1(C(=O)OCC)CCC(C(OC)OC)C(CC(=O)OC)C1 (stereo not drawn)", "> 10 µM (inactive)"],
  ["O=c1[nH]c(=O)n(COCc2ccccc2)c2ccccc12", "19.9 µM (inactive)"],
  ["CCCCCCCCC[C@@H]1C[C@@H]2CCC3C(C(=O)OC)=C(C)N=C(N1)N32 (stereo partly drawn)", "3.47 µM (inactive)"]
]}

Every entry's value here was drawn from ChEMBL document CHEMBL1201862.
